# Inhibitory ratio (%) per entry
TARGET_ENTITY: Na-H exchange (Rattus norvegicus)
Construct: The blood was centrifuged at 3000 r.p.m. for […] to obtain platelet rich plasma (PRP); from tissue; host or cells: platelets in platelet rich plasma from the blood of male Wistar rats
Sequence (P26431 whole entry): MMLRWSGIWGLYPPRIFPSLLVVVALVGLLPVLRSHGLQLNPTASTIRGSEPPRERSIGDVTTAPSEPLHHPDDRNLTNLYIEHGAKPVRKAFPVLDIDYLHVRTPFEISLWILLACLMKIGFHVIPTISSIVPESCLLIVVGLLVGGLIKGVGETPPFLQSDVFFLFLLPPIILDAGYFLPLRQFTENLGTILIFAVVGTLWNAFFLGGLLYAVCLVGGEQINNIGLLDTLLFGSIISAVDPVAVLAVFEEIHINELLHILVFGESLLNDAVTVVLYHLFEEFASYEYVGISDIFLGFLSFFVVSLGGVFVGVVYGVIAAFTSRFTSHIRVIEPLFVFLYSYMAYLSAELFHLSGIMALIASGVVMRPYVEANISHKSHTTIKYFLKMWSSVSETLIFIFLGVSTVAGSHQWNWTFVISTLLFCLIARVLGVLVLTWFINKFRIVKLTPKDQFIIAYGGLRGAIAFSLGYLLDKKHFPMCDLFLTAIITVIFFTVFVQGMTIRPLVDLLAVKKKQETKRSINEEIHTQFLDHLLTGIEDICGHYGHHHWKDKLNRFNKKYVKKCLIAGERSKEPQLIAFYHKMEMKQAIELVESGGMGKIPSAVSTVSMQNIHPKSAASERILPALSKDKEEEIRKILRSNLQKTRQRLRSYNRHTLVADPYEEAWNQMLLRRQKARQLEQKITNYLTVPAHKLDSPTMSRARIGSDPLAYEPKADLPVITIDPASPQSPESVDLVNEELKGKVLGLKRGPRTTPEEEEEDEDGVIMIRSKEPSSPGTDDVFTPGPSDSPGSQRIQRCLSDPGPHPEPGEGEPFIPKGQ
METHOD_NOTES: Inhibition of platelet swelling (light transmittance of platelet rich plasma after sodium propionate), indicator of Na-H exchange inhibition
Type: cell-based, Wistar rats
TEST_SETTINGS: 3µM; rat PRP, value one minute after sodium propionate solution (pH 6.7, 37 °C); difference between 1% DMSO and HOE-642 (10^-5 M) taken as 100
Where a name gives a salt, the structure may show the parent alone.
API: value field is a number in %; no unit string.

>>> value_reported("Cc1ccccc1-c1nnc(N=C(N)N)c2c(I)cccc12")
96
>>> value_reported("NC(N)=Nc1nnc(-c2ccccc2)c2cccc(Br)c12")
99
>>> value_reported("NC(N)=Nc1nnc(-c2ccccc2)c2cccc(I)c12 [Compound 4, hydrochloride]")
78
>>> value_reported("Cc1ccccc1-c1nnc(N=C(N)N)c2c(Br)cccc12")
78

**Query** Param readout = Inhibitory ratio (%); param system = Na-H exchange (Rattus norvegicus); param query = `NC(N)=Nc1nnc(-c2ccc(F)cc2)c2cccc(I)c12` ; response: value
**Result** 78

---

TARGET_ENTITY: Na-H exchange (Rattus norvegicus)
Construct: The blood was centrifuged at 3000 r.p.m. for […] to obtain platelet rich plasma (PRP); from tissue; host or cells: platelets in platelet rich plasma from the blood of male Wistar rats
METHOD_NOTES: Inhibition of platelet swelling (light transmittance of platelet rich plasma after sodium propionate), indicator of Na-H exchange inhibition
Format: cell-based, Wistar rats
TEST_SETTINGS: 1µM; rat PRP, value one minute after sodium propionate solution (pH 6.7, 37 °C); difference between 1% DMSO and HOE-642 (10^-5 M) taken as 100
Structures can show the parent of a compound that is named as a salt.
RESULT_TYPE: Inhibitory ratio (%)
Your answer is read as %, so omit the unit and give the number.

Consider the worked cases shown below.
>>> value_reported("NC(N)=Nc1nnc(-c2ccccc2)c2cccc(I)c12 [Compound 4, hydrochloride]")
66
>>> value_reported("Cc1ccccc1-c1nnc(N=C(N)N)c2c(I)cccc12 [Compound 28]")
66

**Query** Endpoint output: Inhibitory ratio (%) of NC(N)=Nc1nnc(-c2ccccc2)c2cccc(Br)c12 [Compound 13, 8-bromo-4-phenylphthalazin-1-ylguanidine] . Value?
**Result** 60

**Query** Need Inhibitory ratio (%) of NC(N)=Nc1nnc(-c2ccc(F)cc2)c2cccc(I)c12 [Compound 36] , thanks.
**Result** 58

**Query** Given the molecule Cc1ccccc1-c1nnc(N=C(N)N)c2c(Br)cccc12 [Compound 24] , what is its reported Inhibitory ratio (%)?
**Result** 62
